MEASUREMENT_NOTES: 4-week subchronic toxicity study in dogs, D-24851 plasma pharmacokinetics
Format: in vivo
APPLIED_CONDITIONS: male, dog, plasma, iv, 12.1 mg/kg, Day 27; Composition 4 i.v. 12.1 mg/kg; Males; Meanar n=3
MEASUREMENT_KIND: half-life (h)

INSERT INTO measurements (smiles_entry, measurement_kind, recorded_measurement) VALUES
  ('O=C(Nc1ccncc1)C(=O)c1cn(Cc2ccc(Cl)cc2)c2ccccc12', 'half-life', 11.9);

###

MEASUREMENT_NOTES: 4-week subchronic toxicity study in dogs, D-24851 plasma pharmacokinetics
Assay type: in vivo
APPLIED_CONDITIONS: male, dog, plasma, iv, 12.1 mg/kg, Day 27; Composition 4 i.v. 12.1 mg/kg; Males; Meanar n=3; read-out: tmax, md
Method: Blood samples from all animals were taken at the following times: 1 h, 2 h, 4 h, 8 h, 16 h, 24 h, 36 h and 48 hours after application. The concentration levels of D-24851 were measured using HPLC.
MEASUREMENT_KIND: Tmax (h)

INSERT INTO results (molecule, recorded_measurement) VALUES
  ('O=C(Nc1ccncc1)C(=O)c1cn(Cc2ccc(Cl)cc2)c2ccccc12 [Composition D-24851]', 2.67);
